system: LRRK2; conditions: concentration: 1 μM, replicates: in singlicate; n = 1;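 also: KINOMEscan kinase panel screen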
value_kind: %Inh
Write down the value, and be sure its unit follows.

# count of solved cases: 3
structure_string	%Inh
Cl.N#CCc1ccc(Nc2nccc(Nc3ccc(Oc4ccccc4)cc3)n2)cc1	58%
O=C(O)C(F)(F)F.O=c1[nH]ccc2nc(N[C@@H]3CCNC3)nc(Nc3cc(Cl)cc(Cl)c3)c12	97.3%
O=C(Nc1n[nH]c2nc(-c3cccc(O)c3)ccc12)C1CC1	0%

With those in mind, consider the next compound.
Qu. Any idea what %Inh was measured for `CSc1ccc(NC2=C(c3ccc(Cl)cc3)C(=O)NC2=O)cc1` ?
Ans. 43%
